Data provenance: the supplement of paper PMC8253809

Tested on: DIPGX29 (H3.3 K27M diffuse intrinsic pontine glioma line)
Experiment: growth inhibition (% activity, log2 RLU normalised to DMSO / staurosporine); higher = more growth inhibition
Conditions: 33 µM
Measured endpoint: growth inhibition (%)
Report the figure in % without appending any unit label.

# input Answer with the recorded growth inhibition for the compound listed here: CN1C2CCCC1CC(NC(=O)c1nn(C)c3ccccc13)C2 (centres undefined)
# output 1.3

# input Answer with the recorded growth inhibition for the compound listed here: CCOC(=O)c1ccc(C#Cc2ccc3c(c2)C(C)(C)CCS3)nc1
# output 3.83

# input Answer with the recorded growth inhibition for the compound listed here: COc1cc2c(cc1O)CC[C@@H]1[C@@H]2CC[C@]2(C)[C@@H](O)CC[C@@H]12
# output 9.48

# input Answer with the recorded growth inhibition for the compound listed here: COc1ccc(CN2CCN(C(c3ccc(F)cc3)c3ccc(F)cc3)CC2)c(OC)c1OC
# output 3.37

# input Answer with the recorded growth inhibition for the compound listed here: CC(C)c1nc(CN(C)C(=O)N[C@H](C(=O)N[C@@H](Cc2ccccc2)C[C@H](O)[C@H](Cc2ccccc2)NC(=O)OCc2cncs2)C(C)C)cs1
# output 1.73

# input Answer with the recorded growth inhibition for the compound listed here: CCN1CCN(c2cc(-c3ccc(F)cc3)c3c(n2)CCCCCC3)CC1
# output 9.89

# input Answer with the recorded growth inhibition for the compound listed here: CO[C@H]1C[C@@H]2CC[C@@H](C)[C@@](O)(O2)C(=O)C(=O)N2CCCC[C@H]2C(=O)O[C@H]([C@H](C)C[C@@H]2CC[C@@H](OC(=O)C(C)(CO)CO)[C@H](OC)C2)CC(=O)[C@H](C)/C=C(\C)[C@@H](O)[C@@H](OC)C(=O)[C@H](C)C[C@H](C)/C=C/C=C/C=C/1C
# output 1.36

# input Answer with the recorded growth inhibition for the compound listed here: O=c1cc[nH]c(=S)[nH]1
# output 1.29

# input Answer with the recorded growth inhibition for the compound listed here: O=C(CCNNC(=O)c1ccncc1)NCc1ccccc1
# output -2.81

# input Answer with the recorded growth inhibition for the compound listed here: CCOC(=O)[C@H](CCc1ccccc1)N[C@H]1CCCN2CCC[C@@H](C(=O)O)N2C1=O
# output 2.06

# input Answer with the recorded growth inhibition for the compound listed here: NC(=O)N1c2ccccc2C=Cc2ccccc21
# output -0.706

# input Answer with the recorded growth inhibition for the compound listed here: Oc1ccc(OCc2ccccc2)cc1
# output 2.78

# input Answer with the recorded growth inhibition for the compound listed here: O=C1c2cccc3c2[C@H](CCC3)CN1[C@@H]1CN2CCC1CC2
# output 1.6

# input Answer with the recorded growth inhibition for the compound listed here: COc1cc2ncnc(Nc3ccc(F)c(Cl)c3)c2cc1OCCCN1CCOCC1
# output 3.09

* * *

Would you mind telling me the reported growth inhibition of each entry?
System: DIPGX37 (H3.3 K27M diffuse intrinsic pontine glioma line)
Experiment: growth inhibition (% activity, log2 RLU normalised to DMSO / staurosporine); higher = more growth inhibition
Conditions: 33 µM
Report the figure in % without appending any unit label.

# input Answer with the recorded growth inhibition for the molecule listed here: CN(C)CC/C=C1/c2ccccc2COc2ccc(CC(=O)O)cc21
# output 3.18

# input Answer with the recorded growth inhibition for the molecule listed here: NCC(=O)CCC(=O)O
# output 0.832

# input Answer with the recorded growth inhibition for the molecule listed here: CC[C@]1(O)C[C@@H]2CN(CCc3c([nH]c4ccccc34)[C@@](C(=O)OC)(c3cc4c(cc3OC)N(C)[C@H]3[C@@](O)(C(=O)OC)[C@H](OC(C)=O)[C@]5(CC)C=CCN6CC[C@]43[C@@H]65)C2)C1
# output 14

# input Answer with the recorded growth inhibition for the molecule listed here: C=C1/C(=C\C=C2/CCC[C@]3(C)[C@@H]([C@H](C)CCCC(C)(C)O)CC[C@@H]23)C[C@@H](O)C[C@@H]1O
# output 4.49

# input Answer with the recorded growth inhibition for the molecule listed here: NC(=O)NO
# output -0.579

# input Answer with the recorded growth inhibition for the molecule listed here: COc1cc2nc(N3CCN(C(=O)c4ccco4)CC3)nc(N)c2cc1OC
# output -2.22

# input Answer with the recorded growth inhibition for the molecule listed here: NS(=O)(=O)c1cc2c(cc1Cl)NC(C(Cl)Cl)NS2(=O)=O (centres undefined)
# output 4.01

# input Answer with the recorded growth inhibition for the molecule listed here: CO[C@H]1C[C@@H]2CC[C@@H](C)[C@@](O)(O2)C(=O)C(=O)N2CCCC[C@H]2C(=O)O[C@H]([C@H](C)C[C@@H]2CC[C@@H](OCCO)[C@H](OC)C2)CC(=O)[C@H](C)/C=C(\C)[C@@H](O)[C@@H](OC)C(=O)[C@H](C)C[C@H](C)/C=C/C=C/C=C/1C
# output 2.47

# input Answer with the recorded growth inhibition for the molecule listed here: C=C1/C(=C\C=C2/CCC[C@]3(C)[C@@H]([C@H](C)/C=C/[C@H](C)C(C)C)CC[C@@H]23)C[C@@H](O)C[C@@H]1O
# output 1.95

# input Answer with the recorded growth inhibition for the molecule listed here: CCOC(=O)c1c(C)n(C)c2ccc(O)cc12
# output 0.373

# input Answer with the recorded growth inhibition for the molecule listed here: CC(C(=O)O)c1ccc2c(c1)[nH]c1ccc(Cl)cc12 (centres undefined)
# output -0.934

# input Answer with the recorded growth inhibition for the molecule listed here: CN(C)[C@@H]1C(O)=C(C(=O)NCN2CCCC2)C(=O)[C@@]2(O)C(O)=C3C(=O)c4c(O)cccc4[C@@](C)(O)[C@H]3C[C@@H]12
# output -1.26

# input Answer with the recorded growth inhibition for the molecule listed here: O[C@@H]1CO[C@H]2[C@@H]1OC[C@@H]2O
# output 0.0638

# input Answer with the recorded growth inhibition for the molecule listed here: CN1CCN2c3ncccc3Cc3ccccc3C2C1 (centres undefined)
# output -1.56

# input Answer with the recorded growth inhibition for the molecule listed here: NS(=O)(=O)c1cc(Cl)c(Cl)c(S(N)(=O)=O)c1
# output -0.619

# input Answer with the recorded growth inhibition for the molecule listed here: Clc1ccc2c(c1)C(N1CCNCC1)=Nc1ccccc1O2
# output 1.52

# input Answer with the recorded growth inhibition for the molecule listed here: CCCc1nc(C(C)(C)O)c(C(=O)OCc2oc(=O)oc2C)n1Cc1ccc(-c2ccccc2-c2nnn[nH]2)cc1
# output 0.0168

# input Answer with the recorded growth inhibition for the molecule listed here: COC(=O)C1=C(C)NC(C)=C(C(=O)OCCN(C)Cc2ccccc2)C1c1cccc([N+](=O)[O-])c1 (centres undefined)
# output 4.39

# input Answer with the recorded growth inhibition for the molecule listed here: N#CC(c1ccc(Cl)cc1)c1c(Cl)cc(-n2ncc(=O)[nH]c2=O)cc1Cl (centres undefined)
# output -2.44

# input Answer with the recorded growth inhibition for the molecule listed here: CC(CN(C)C)CN1c2ccccc2CCc2ccccc21 (centres undefined)
# output -0.198

# input Answer with the recorded growth inhibition for the molecule listed here: Cc1cc(-n2c(=O)[nH]c(=O)n(C)c2=O)ccc1Oc1ccc(SC(F)(F)F)cc1
# output 4.99

# input Answer with the recorded growth inhibition for the molecule listed here: COC(=O)C1=C(C)NC(C)=C(C(=O)OC2CCCN(Cc3ccccc3)C2)C1c1cccc([N+](=O)[O-])c1 (centres undefined)
# output 0.403

# input Answer with the recorded growth inhibition for the molecule listed here: O=C(Nc1ccccc1)OCC(CN1CCCCC1)OC(=O)Nc1ccccc1 (centres undefined)
# output -3.49

# input Answer with the recorded growth inhibition for the molecule listed here: O=c1ccn([C@@H]2O[C@H](CO)[C@@H](O)[C@H]2O)c(=O)[nH]1
# output -1.37

# input Answer with the recorded growth inhibition for the molecule listed here: CN[C@H]1CC[C@@H](c2ccc(Cl)c(Cl)c2)c2ccccc21
# output 6.8

# input Answer with the recorded growth inhibition for the molecule listed here: CC12CC3CC(C)(C1)CC(N)(C3)C2
# output -0.52

# input Answer with the recorded growth inhibition for the molecule listed here: CNC(=O)c1ccc(N2C(=S)N(c3ccc(C#N)c(C(F)(F)F)c3)C(=O)C2(C)C)cc1F
# output -0.457

# input Answer with the recorded growth inhibition for the molecule listed here: CCCCOc1ccc(C(=O)CCN2CCCCC2)cc1
# output 1.81

# input Answer with the recorded growth inhibition for the molecule listed here: CC[C@@H]1/C=C(\C)C[C@H](C)C[C@H](OC)[C@H]2O[C@@](O)(C(=O)C(=O)N3CCCC[C@H]3C(=O)O[C@H](/C(C)=C/[C@@H]3CC[C@H](Cl)[C@H](OC)C3)[C@H](C)[C@@H](O)CC1=O)[C@H](C)C[C@@H]2OC
# output 4.05

* * *

Test system: HGGX6 (H3.3 G34R paediatric high-grade glioma line)
Assay: growth inhibition (% activity, log2 RLU normalised to DMSO / staurosporine); higher = more growth inhibition
Details: 33 µM
Measured endpoint: growth inhibition (%)
Report the figure in % without appending any unit label.

# input Look up HGGX6 data: growth inhibition of NS(=O)(=O)c1cc(Cl)c(Cl)c(S(N)(=O)=O)c1 , then report it.
# output -5.6

# input Look up HGGX6 data: growth inhibition of CCCCOc1cc(C(=O)NCCN(CC)CC)c2ccccc2n1 , then report it.
# output 5.06

# input Look up HGGX6 data: growth inhibition of Cc1cc(C)nc(NS(=O)(=O)c2ccc(N)cc2)n1 , then report it.
# output -2.24

# input Look up HGGX6 data: growth inhibition of CN1CC(=O)N2[C@H](c3ccc4c(c3)OCO4)c3[nH]c4ccccc4c3C[C@@H]2C1=O , then report it.
# output 0.71
